Experiment: Radical scavenging activity determined by ORAC
Conditions: relative to trolox; Mean ± SD (n = 3)
Label key: true (1) means ORAC (compound/trolox) under 0.3; false (0) means ORAC (compound/trolox) of 0.3 or more.

> print(dat)
                                   molecule  qualitative.label
1  COc1cc(CNc2nc(N(C)C)nc3c2ncn3C2CCCO2)ccc1O (stereo not drawn)          false (0)
2  CNc1nc(NCc2ccccc2)c2ncn(C3CCCO3)c2n1 (stereo not drawn)           true (1)
3  CN(C)c1nc(NCc2cccc(O)c2)c2ncn(C3CCCCO3)c2n1 (stereo not drawn)          false (0)
4  CN(C)c1nc(NCc2cccc(O)c2)c2ncn(C3CCCO3)c2n1 (stereo not drawn)          false (0)
5  CN(C)CCNc1nc(NCc2ccco2)c2ncn(C3CCCCO3)c2n1 (stereo not drawn)          false (0)
6  CN(C)c1nc(NCc2ccco2)c2ncn(C3CCCCO3)c2n1 (stereo not drawn)           true (1)
7  CNc1nc(NCc2ccco2)c2ncn(C3CCCCO3)c2n1 (stereo not drawn)           true (1)
8  Cc1ccc(CNc2nc(N(C)C)nc3c2ncn3C2CCCO2)o1 (stereo not drawn)           true (1)
